Biological target: histone deacetylase (HeLa nuclear extracts)
Assay: In vitro assay for inhibition of histone deacetylase
Format: biochemical
Details: HeLa nuclear extracts 60 μg/ml, [3H]acetylated histone H4 peptide substrate, 30 min
Mark T for reported Enzyme activity pIC50 of 7 or greater; mark F for anything smaller.

Please review the entries below; each comes with its answer.
Cc1ccccc1-c1ccccc1S(=O)(=O)NCC1CCN(c2ncc(C(=O)NO)cn2)CC1 :: T
O=C(NO)c1cnc(N2CCCC(NS(=O)(=O)c3ccc4ccccc4c3)CC2)nc1 (stereo not shown) :: T

Is the recorded value of Enzyme activity pIC50 equal to or greater than 7 for this molecule? "Cc1cc(C(=O)NO)ccc1N1CCC(NS(=O)(=O)c2ccc3ccccc3c2)CC1"
F

Is the recorded value of Enzyme activity pIC50 equal to or greater than 7 for this molecule? "Cc1cc(C(=O)NO)ccc1N1CCC(NS(=O)(=O)c2ccc(-c3ccccc3)cc2)CC1"
F

----------
Biological target: histone deacetylase (HeLa nuclear extracts)
Experiment: In vitro assay for inhibition of histone deacetylase
Type: biochemical
Settings: HeLa nuclear extracts 60 μg/ml, [3H]acetylated histone H4 peptide substrate, 30 min
# Enzyme activity pIC50 listing for each entry below
Number only, no unit.

The examples below pair each entry with its known result.
O=C(NO)c1ccc(N2CCC(NS(=O)(=O)c3ccc4ccccc4c3)CC2)cc1 [Co. No. 1] :: 6.523
O=C(NO)c1cnc(N2CCN(CCNS(=O)(=O)c3ccc4ccccc4c3)CC2)nc1 [compound 32] :: 7.526
O=C(NO)c1ccc(N2CCC(NS(=O)(=O)c3ccc(-c4ccccc4)cc3)CC2)cc1 [compound 14] :: 6.116
O=C(NO)c1cnc(N2CCC(N(CCO)S(=O)(=O)c3ccc4ccccc4c3)CC2)nc1 [compound 34] :: 7.337

Query compound follows.
Given the entry CN(C1CCN(c2ncc(C(=O)NO)cn2)CC1)S(=O)(=O)c1ccc2ccccc2c1 [Co. No. 29] , what Enzyme activity pIC50 was observed with histone deacetylase (HeLa nuclear extracts)?
7.04

----------
Assay: Kinetic solubility in aqueous media
Format: physicochemical
Conditions: aqueous buffer, kinetic from dmso stock; phosphate citrate buffer pH 7.4, turbidity by nephelometer; read-out: Solubility Score
Protocol: Kinetic solubility in aqueous media measures the ability of a compound to stay in aqueous solution upon dilution (see example C.3). DMSO-stock solutions are diluted with a single aqueous buffer solvent in 3 consecutive steps. For every dilution turbidity is measured with a nephelometer. In the first dilution step, 10 μl of a concentrated stock-solution of the active compound, solubilized in DMSO (5 mM), was added to 100 μl phosphate citrate buffer pH 7.4 and mixed. […]
Measurement type: solubility

The examples below pair each entry with its known result.
O=C(NO)c1cnc(N2CC[C@H](NS(=O)(=O)c3ccc4ccccc4c3)[C@H](CO)C2)nc1 [Co. No. 7] :: > 455 µM
O=C(NO)c1cnc(N2CCC(O)(CNS(=O)(=O)c3ccc4ccccc4c3)CC2)nc1 [Co. No. 9] :: 76 to 455 µM
O=C(NO)c1cnc(N2CCC(NS(=O)(=O)c3ccc4ccccc4c3)CC2)nc1 [Co. No. 2] :: > 455 µM

Param item = O=C(NO)c1cnc(N2CCC(CNS(=O)(=O)c3ccc4ccccc4c3)CC2)nc1 [Co. No. 5] ; retrieve measured solubility.
< 76 µM

Param item = O=C(NO)c1ccc(N2CCC(NS(=O)(=O)c3ccc(-c4ccccc4)cc3)CC2)nc1 [compound 15] ; retrieve measured solubility.
< 76 µM

Param item = O=C(NO)c1ccc(N2CCC(CNS(=O)(=O)c3ccc4ccccc4c3)CC2)nc1 [Co. No. 4] ; retrieve measured solubility.
< 76 µM

Param item = O=C(NO)c1cnc(N2CC[C@H](CNS(=O)(=O)c3ccc4ccccc4c3)[C@H](O)C2)nc1 [Co. No. 8] ; retrieve measured solubility.
> 455 µM

----------
Measurement type: melting point (°C)
Return type: number; implicit unit °C.

Param item = O=C(NO)c1cnc(N2CCN(CCCNS(=O)(=O)c3ccc4ccccc4c3)CC2)nc1 (hydrate or solvate) [Co. No. 26] ; retrieve measured melting point.
115

Param item = O=C(NO)c1cnc(N2CCC(CNS(=O)(=O)N3CCOCC3)CC2)nc1 [Co. No. 28] ; retrieve measured melting point.
217

Param item = O=C(NO)c1cnc(N2CCC(NS(=O)(=O)c3ccc4ccccc4c3)CC2)nc1 [Co. No. 2] ; retrieve measured melting point.
200

Param item = CN(C1CCN(c2ncc(C(=O)NO)cn2)C1)S(=O)(=O)c1ccc2ccccc2c1 (stereo not shown) [Co. No. 27] ; retrieve measured melting point.
158

Param item = O=C(NO)c1ccc(N2CCCC(NS(=O)(=O)c3ccc4ccccc4c3)CC2)nc1 (stereo not shown) [Co. No. 10] ; retrieve measured melting point.
142

Param item = O=C(NO)c1ccc(N2CCC(CNS(=O)(=O)c3ccc4ccccc4c3)CC2)nc1 [Co. No. 4] ; retrieve measured melting point.
173

Param item = O=C(Nc1ccc(N2CCC(NS(=O)(=O)c3ccc(-c4ccccc4)cc3)CC2)cc1)/C(Cc1ccccc1)=N/O [Co. No. 3] ; retrieve measured melting point.
262

Param item = O=C(NO)c1cnc(N2CC[C@H](CNS(=O)(=O)c3ccc4ccccc4c3)[C@H](O)C2)nc1 [Co. No. 8] ; retrieve measured melting point.
224

Param item = O=C(NO)c1cnc(N2CC[C@H](NS(=O)(=O)c3ccc4ccccc4c3)[C@H](CO)C2)nc1 [Co. No. 7] ; retrieve measured melting point.
203

Param item = O=C(NO)c1cnc(N2CCC(NS(=O)(=O)N3CCOCC3)CC2)nc1 [Co. No. 25] ; retrieve measured melting point.
217

Param item = O=C(NO)c1cnc(N2CCC(NS(=O)(=O)c3ccc4ccccc4c3)CC2)nc1N1CCN(S(=O)(=O)c2ccc3ccccc3c2)CC1 [Co. No. 6] ; retrieve measured melting point.
80

Param item = O=C(NO)c1cnc(N2CCC(O)(CNS(=O)(=O)c3ccc4ccccc4c3)CC2)nc1 [Co. No. 9] ; retrieve measured melting point.
228

----------
Molecular target: histone deacetylase (HeLa nuclear extracts)
Test: In vitro assay for inhibition of histone deacetylase
Format: biochemical
Settings: HeLa nuclear extracts 60 μg/ml, [3H]acetylated histone H4 peptide substrate, 30 min
Measurement type: Enzyme activity pIC50
Number only, no unit.

The examples below pair each entry with its known result.
O=C(NO)c1cnc(N2CCC(CNS(=O)(=O)c3ccccc3-c3ccc(CO)cc3)CC2)nc1 [compound 36] :: 7.265
O=C(NO)c1ccc(N2CCC(NS(=O)(=O)c3ccc(-c4ccccc4)cc3)C2)nc1 (stereo not drawn) [compound 18] :: 5.321
O=C(NO)c1ccc(N2CCC(CNS(=O)(=O)c3ccc4ccccc4c3)CC2)nc1 [Co. No. 4] :: 7.574
O=C(NO)c1cnc(N2CC[C@H](NS(=O)(=O)c3ccc4ccccc4c3)[C@H](CO)C2)nc1 [Co. No. 7] :: 7.533

Given the entry O=C(NO)c1cnc(N2CCC(O)(CNS(=O)(=O)c3ccc4ccccc4c3)CC2)nc1 [Co. No. 9] , what Enzyme activity pIC50 was observed with histone deacetylase (HeLa nuclear extracts)?
7.579

Given the entry COc1cccc(-c2ccccc2S(=O)(=O)NCC2CCN(c3ncc(C(=O)NO)cn3)CC2)c1 [compound 42] , what Enzyme activity pIC50 was observed with histone deacetylase (HeLa nuclear extracts)?
7.584

----------
Biological target: histone deacetylase (HeLa nuclear extracts)
Experiment: In vitro assay for inhibition of histone deacetylase
Format: biochemical
Settings: HeLa nuclear extracts 60 μg/ml, [3H]acetylated histone H4 peptide substrate, 30 min
Measurement type: Enzyme activity pIC50
Number only, no unit.

CO[C@@H]1CN(c2ncc(C(=O)NO)cn2)CC[C@@H]1NS(=O)(=O)c1ccc2ccccc2c1 :: 6.662

Param item = "COCCN(C1CCN(c2ncc(C(=O)NO)cn2)CC1)S(=O)(=O)c1ccc2ccccc2c1" ; retrieve measured Enzyme activity pIC50.
7.046

Param item = "O=C(NO)c1cnc(N2CCC(CNS(=O)(=O)c3ccccc3-c3ccsc3)CC2)nc1" ; retrieve measured Enzyme activity pIC50.
7.273

Param item = "CN(C)c1ccc(-c2ccccc2S(=O)(=O)NCC2CCN(c3ncc(C(=O)NO)cn3)CC2)cc1" ; retrieve measured Enzyme activity pIC50.
7.432

Param item = "O=C(NO)c1cnc(N2CCC(CNS(=O)(=O)c3ccccc3-c3cc4ccccc4o3)CC2)nc1" ; retrieve measured Enzyme activity pIC50.
7.469

----------
Molecular target: histone deacetylase (HeLa nuclear extracts)
Assay: In vitro assay for inhibition of histone deacetylase
Format: biochemical
Conditions: HeLa nuclear extracts 60 μg/ml, [3H]acetylated histone H4 peptide substrate, 30 min
Method: The in vitro assay for inhibition of histone deacetylase (see example C.1) measures the inhibition of HDAC enzymatic activity obtained with the compounds of formula (I). HeLa nuclear extracts (supplier: Biomol) were incubated at 60 μg/ml with 2×10^−8 M of radiolabeled peptide substrate. […] After mixing and centrifugation, the radioactivity in an aliquot of the upper (organic) phase was counted in β-counter. […]
# Enzyme activity pIC50 listing for each entry below

O=C(NO)c1cnc(N2CCC(NS(=O)(=O)c3ccc4ccccc4c3)CC2)nc1N1CCN(S(=O)(=O)c2ccc3ccccc3c2)CC1 [Co. No. 6] :: <5
O=C(NO)c1cnc(N2CC[C@H](CNS(=O)(=O)c3ccc4ccccc4c3)[C@H](O)C2)nc1 [Co. No. 8] :: 7.355
O=C(NO)c1cnc(N2CCN(CCCNS(=O)(=O)c3ccc4ccccc4c3)CC2)nc1 [Co. No. 26] :: 7.85
CS(=O)(=O)c1ccc(-c2ccccc2S(=O)(=O)NCC2CCN(c3ncc(C(=O)NO)cn3)CC2)cc1 [Co. No. 30] :: 7.614
O=C(NO)c1cnc(N2CCC(CNS(=O)(=O)c3ccccc3-c3ccoc3)CC2)nc1 [compound 38] :: 7.154

Query compound follows.
Param item = O=C(NO)c1ccc(N2CCC(NS(=O)(=O)c3ccc4ccccc4c3)C2)nc1 (stereo not drawn) [compound 17] ; retrieve measured Enzyme activity pIC50.
6.95
